# target-desc: human androgen receptor (AR) (Homo sapiens)
# Construct: expressed in transfected cells; host or cells: CV-1 cells, transient transfection
# Sequence (P10275 whole entry): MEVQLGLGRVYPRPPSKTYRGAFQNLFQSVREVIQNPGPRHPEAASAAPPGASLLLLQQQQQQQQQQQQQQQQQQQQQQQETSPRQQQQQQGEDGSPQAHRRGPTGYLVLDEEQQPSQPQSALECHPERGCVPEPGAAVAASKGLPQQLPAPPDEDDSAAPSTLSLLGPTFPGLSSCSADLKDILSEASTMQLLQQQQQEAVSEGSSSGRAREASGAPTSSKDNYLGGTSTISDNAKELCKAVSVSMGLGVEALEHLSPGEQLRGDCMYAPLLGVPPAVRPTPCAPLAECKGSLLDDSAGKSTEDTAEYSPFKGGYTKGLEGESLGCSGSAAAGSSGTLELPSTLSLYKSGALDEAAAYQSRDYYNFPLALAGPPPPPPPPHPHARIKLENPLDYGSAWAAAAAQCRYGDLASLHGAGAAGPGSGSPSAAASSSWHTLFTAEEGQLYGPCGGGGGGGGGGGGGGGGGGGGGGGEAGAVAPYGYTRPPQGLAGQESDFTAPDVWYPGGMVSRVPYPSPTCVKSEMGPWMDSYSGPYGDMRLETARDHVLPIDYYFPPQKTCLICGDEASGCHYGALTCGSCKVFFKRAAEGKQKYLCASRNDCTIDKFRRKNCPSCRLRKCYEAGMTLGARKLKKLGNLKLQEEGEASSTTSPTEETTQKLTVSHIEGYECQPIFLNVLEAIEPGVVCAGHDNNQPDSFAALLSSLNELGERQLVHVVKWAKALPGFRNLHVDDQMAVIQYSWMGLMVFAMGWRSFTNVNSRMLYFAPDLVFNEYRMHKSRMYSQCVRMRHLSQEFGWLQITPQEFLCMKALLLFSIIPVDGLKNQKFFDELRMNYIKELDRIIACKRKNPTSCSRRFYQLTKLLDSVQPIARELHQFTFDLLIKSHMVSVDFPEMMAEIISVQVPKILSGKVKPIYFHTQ
# test-summary: Co-transfection assay, AR agonist and antagonist activity, CV-1 cells (pRShAR)
# Assay type: cell-based
# details: Table 2; antagonist mode; % maximal inhibition
Values of AR Antagonist CV-1 Cells Efficacy (%) greater than or equal to 80% map to satisfied; values below map to not satisfied.

In [3]: df
Out[3]:
                                   compound          group
0  CC1C(=O)C(C)(C)Nc2cc3[nH]c(=O)cc(C(F)(F)F)c3cc21 (racemic) [Compound 418]  not satisfied
1  CC1=CC(C)(C)Nc2cc3oc(=O)cc(C(F)(F)C(F)(F)F)c3cc21 [Compound 256]      satisfied
2  CC1=CC(C)(C)Nc2cc3[nH]c(=O)cc(C(F)(F)F)c3cc21 [Compound 247]  not satisfied
3  CC1(C)CNc2cc3[nH]c(=O)cc(C(F)(F)F)c3cc2C1 [Compound 437]  not satisfied
4  O=c1cc(C(F)(F)F)c2cc3c(cc2[nH]1)NCC3 [Compound 419]  not satisfied
5  CC1CC(C)(C)Nc2cc3oc(=O)cc(-c4ccoc4)c3cc21 (racemic) [Compound 405]      satisfied

---

# target-desc: human mineralocorticoid receptor (MR) (Homo sapiens)
# Construct: expressed in transfected cells; host or cells: CV-1 cells, transient transfection
# Sequence (P08235 whole entry): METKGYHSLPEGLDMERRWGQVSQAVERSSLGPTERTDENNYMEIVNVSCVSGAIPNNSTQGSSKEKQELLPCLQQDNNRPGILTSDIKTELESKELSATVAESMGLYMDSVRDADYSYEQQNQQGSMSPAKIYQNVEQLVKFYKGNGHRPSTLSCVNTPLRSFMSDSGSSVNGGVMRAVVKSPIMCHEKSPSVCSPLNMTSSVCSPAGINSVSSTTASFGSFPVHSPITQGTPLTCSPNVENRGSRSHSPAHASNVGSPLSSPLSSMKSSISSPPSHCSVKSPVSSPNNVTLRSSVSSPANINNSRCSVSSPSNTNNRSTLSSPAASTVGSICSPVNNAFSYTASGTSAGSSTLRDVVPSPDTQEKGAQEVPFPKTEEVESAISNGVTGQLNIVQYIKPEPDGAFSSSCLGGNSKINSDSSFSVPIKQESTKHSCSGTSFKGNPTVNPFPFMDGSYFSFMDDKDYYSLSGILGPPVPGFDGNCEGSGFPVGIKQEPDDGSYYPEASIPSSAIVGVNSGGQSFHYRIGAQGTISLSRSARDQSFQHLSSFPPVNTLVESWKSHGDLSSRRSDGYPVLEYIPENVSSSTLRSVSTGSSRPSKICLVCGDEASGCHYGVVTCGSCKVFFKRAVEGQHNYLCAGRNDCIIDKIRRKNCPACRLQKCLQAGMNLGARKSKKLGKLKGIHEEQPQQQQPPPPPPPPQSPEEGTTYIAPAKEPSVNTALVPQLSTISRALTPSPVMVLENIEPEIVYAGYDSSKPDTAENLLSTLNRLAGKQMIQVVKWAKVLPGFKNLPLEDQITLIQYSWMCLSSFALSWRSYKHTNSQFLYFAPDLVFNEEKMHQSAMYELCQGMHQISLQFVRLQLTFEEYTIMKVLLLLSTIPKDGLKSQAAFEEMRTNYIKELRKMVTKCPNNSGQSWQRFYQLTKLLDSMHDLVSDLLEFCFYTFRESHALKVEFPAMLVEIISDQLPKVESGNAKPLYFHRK
# test-summary: Co-transfection assay, MR antagonist activity, CV-1 cells (pRShMR)
# Format: cell-based
# details: Table 4; antagonist mode; % maximal inhibition
Please enter true (1) where MR Antagonist CV-1 Cells Efficacy (%) is greater than or equal to 60%, and false (0) where it is lower.

                                   molecule      group
0  CC1=CC(C)(C)Nc2ccc3c(c21)C(c1ccccc1)Oc1ccccc1-3 (racemic)  false (0)
1  CC(=O)S[C@@H]1CC2=CC(=O)CC[C@]2(C)[C@H]2CC[C@@]3(C)[C@@H](CC[C@@]34CCC(=O)O4)[C@H]12 [Spir, reference compound]   true (1)
2  CC1=CC(C)(C)Nc2ccc3c(c21)C(c1cccc(C(F)(F)F)c1)Oc1ccccc1-3 (racemic)  false (0)
3  C=C1CC(C)(C)Nc2ccc3c(c21)C(c1cccc(F)c1)Oc1ccccc1-3 (racemic)   true (1)
4  CC#C[C@]1(O)CC[C@H]2[C@@H]3CCC4=CC(=O)CCC4=C3[C@@H](c3ccc(N(C)C)cc3)C[C@@]21C [RU486, reference compound]   true (1)
5  CC1=CC(C)(C)Nc2ccc3c(c21)C(c1ccsc1)Oc1ccccc1-3 (racemic)   true (1)

---

# target-desc: UniProt P04150
# Sequence (P04150 1-777): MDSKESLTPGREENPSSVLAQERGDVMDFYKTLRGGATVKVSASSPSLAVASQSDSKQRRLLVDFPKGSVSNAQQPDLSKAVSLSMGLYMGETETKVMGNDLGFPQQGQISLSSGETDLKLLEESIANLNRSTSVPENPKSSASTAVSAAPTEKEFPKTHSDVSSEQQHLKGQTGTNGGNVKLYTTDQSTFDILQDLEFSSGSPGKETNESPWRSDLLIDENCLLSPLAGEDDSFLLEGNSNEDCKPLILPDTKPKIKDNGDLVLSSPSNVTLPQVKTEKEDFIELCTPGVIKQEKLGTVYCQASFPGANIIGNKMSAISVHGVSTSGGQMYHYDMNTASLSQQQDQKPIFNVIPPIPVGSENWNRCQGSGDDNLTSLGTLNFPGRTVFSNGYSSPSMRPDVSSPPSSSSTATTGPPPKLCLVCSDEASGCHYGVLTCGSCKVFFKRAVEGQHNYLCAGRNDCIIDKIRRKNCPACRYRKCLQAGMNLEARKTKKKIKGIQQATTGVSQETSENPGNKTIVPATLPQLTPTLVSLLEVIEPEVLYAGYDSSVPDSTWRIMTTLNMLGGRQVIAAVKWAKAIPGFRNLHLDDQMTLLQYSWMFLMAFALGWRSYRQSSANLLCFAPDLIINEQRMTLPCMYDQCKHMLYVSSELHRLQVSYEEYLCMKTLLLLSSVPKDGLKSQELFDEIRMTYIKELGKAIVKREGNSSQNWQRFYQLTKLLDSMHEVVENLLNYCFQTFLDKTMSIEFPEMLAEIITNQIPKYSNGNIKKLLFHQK
Quick reference: Ki of the listed items.
attribute-measured: Ki

>>> print(df.to_string())
                                   molecule  assay_result
0  CC1=CC(C)(C)Nc2ccc3c(c21)C(c1cccc(C(F)(F)F)c1)Oc1ccccc1-3 (racemic)         26 nM
1  C=C1CC(C)(C)Nc2ccc3c(c21)C(c1cccc(F)c1)Oc1ccccc1-3 (racemic)        214 nM
2  CC1=CC(C)(C)Nc2ccc3c(c21)C(c1ccc(C)cc1)Oc1ccccc1-3 (racemic)         21 nM
3  CC1=CC(C)(C)Nc2ccc3c(c21)C(c1ccccc1)Oc1ccccc1-3 (racemic)        137 nM
4  CC1=CC(C)(C)Nc2ccc3c(c21)C(c1ccsc1)Oc1ccccc1-3 (racemic)         47 nM

---

# target-desc: human PR-B (Homo sapiens)
# Construct: expressed in transfected cells; host or cells: CV-1 cells (African green monkey kidney fibroblasts), transient transfection
# Sequence (P06401 1-933): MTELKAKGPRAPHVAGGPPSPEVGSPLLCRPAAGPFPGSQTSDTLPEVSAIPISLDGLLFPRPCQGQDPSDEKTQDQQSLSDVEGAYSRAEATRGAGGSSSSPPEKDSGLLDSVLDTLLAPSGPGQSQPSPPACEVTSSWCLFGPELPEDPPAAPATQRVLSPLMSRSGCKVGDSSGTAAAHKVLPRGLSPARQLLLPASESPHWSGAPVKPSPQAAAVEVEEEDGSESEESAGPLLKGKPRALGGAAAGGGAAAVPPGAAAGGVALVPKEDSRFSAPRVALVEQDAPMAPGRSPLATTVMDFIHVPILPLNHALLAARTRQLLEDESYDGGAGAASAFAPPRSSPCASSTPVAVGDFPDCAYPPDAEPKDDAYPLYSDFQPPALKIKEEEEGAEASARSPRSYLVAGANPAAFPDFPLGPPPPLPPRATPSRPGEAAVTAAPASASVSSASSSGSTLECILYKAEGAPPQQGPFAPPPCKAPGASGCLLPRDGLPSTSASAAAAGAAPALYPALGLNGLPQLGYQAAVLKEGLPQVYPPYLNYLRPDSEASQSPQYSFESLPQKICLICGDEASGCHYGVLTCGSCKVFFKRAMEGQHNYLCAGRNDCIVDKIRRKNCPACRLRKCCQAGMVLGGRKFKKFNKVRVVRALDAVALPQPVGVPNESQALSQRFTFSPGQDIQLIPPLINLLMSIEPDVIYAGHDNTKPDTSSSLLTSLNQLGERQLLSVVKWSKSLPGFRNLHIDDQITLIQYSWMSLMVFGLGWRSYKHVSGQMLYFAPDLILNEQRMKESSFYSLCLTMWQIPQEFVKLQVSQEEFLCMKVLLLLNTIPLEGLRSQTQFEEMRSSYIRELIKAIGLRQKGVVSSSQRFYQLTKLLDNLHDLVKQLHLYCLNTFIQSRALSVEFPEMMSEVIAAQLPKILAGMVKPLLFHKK
# test-summary: Co-transfection assay, PR agonist and antagonist activity, CV-1 cells
# Assay type: cell-based
# details: antagonist mode, progesterone at its EC50; IC50; read-out: PR Antagonist CV-1 Cells Potency
attribute-measured: IC50 (nM)

                                  molecule                target_desc  assay_result
0  CC1=CC(C)(C)Nc2cc3c(cc21)-c1ccc(F)cc1C3  human PR-B (Homo sapiens)            10

---

# target-desc: human PR-B (Homo sapiens)
# Construct: expressed in transfected cells; host or cells: CV-1 cells (African green monkey kidney fibroblasts), transient transfection
# test-summary: Co-transfection assay, PR agonist and antagonist activity, CV-1 cells;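 note: luciferase reporter driven by a hormone response element, co-transfected with human PR-B into CV-1 monkey kidney cells, agonists raise and antagonists lower the reporter signal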
# Format: cell-based
attribute-measured: EC50 (nM)

>>> print(df.to_string())
                                  molecule  assay_result
0  CC1=CC(C)(C)Nc2cc3c(cc21)-c1ccc(F)cc1C3          1600

---

# target-desc: human progesterone receptor A form (PR-A) (Homo sapiens)
# test-summary: PR binding assay, baculovirus extract, [3H] progesterone
# details: read-out: PR Binding Ki
Reported Ki values follow for various compounds
attribute-measured: Ki (nM)

                                   compound  attribute_measured  assay_result
0  CC1(C)C=Cc2c(ccc3c2c(=O)oc2ccc(Cl)cc23)N1                  Ki            87
1    CC1=CC(C)(C)Nc2ccc(-c3cccc(C#N)c3)cc21                  Ki            17
2  CC1C(=O)C(C)(C)Nc2ccc(-c3cc(F)cc(C#N)c3)cc21 (stereo not shown)                  Ki            61
3  CC1CC(C)(C)Nc2ccc(-c3cc(F)cc(C#N)c3)cc21 (racemic)                  Ki            10

Cited source for all entries: patent US6448405B1
